target: T1, human PD-L1 ECD-His (human, UniProt Q9NZQ7 19-238); test: SPR, hPD-L1-His, comparison of IgG isotypes of PL2#3
T1 construct: extracellular domain; Analyte in all SPR and BLI runs; also called hPD-L1_ECD-His; hPD-L1 ECD-His; not shown: His tag
T1 sequence (Q9NZQ7 19-238): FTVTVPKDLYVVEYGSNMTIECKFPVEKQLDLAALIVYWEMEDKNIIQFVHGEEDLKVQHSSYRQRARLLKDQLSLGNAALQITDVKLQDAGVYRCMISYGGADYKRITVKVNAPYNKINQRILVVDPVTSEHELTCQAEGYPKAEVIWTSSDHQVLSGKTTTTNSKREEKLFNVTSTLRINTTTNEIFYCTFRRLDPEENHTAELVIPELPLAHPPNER
Each record is given True if its reported Kd is strictly below 200 pM. Records at or above 200 pM are given False.

- BINDER: "PL2#3 mtIgG1 (N297A) (antibody, V domains shown, N297A mutant of human IgG1 Fc backbone) VH: EVQLVQSGGGLVKPGGSLRLSCAASGFTFSSYTMNWVRQAPGKGLEWVSSISSGSDYLYYADSVKGRFTISRDNAKNSLYLQMNSLRAEDTAVYYCARNELRWYPQAGAFDRWGQGTMVTVSS VL: QSVVTQPPSMSAAPGQRVTISCSGSSSYIESSYVGWYQQLPGTAPRLLIYDDDMRPSGIPDRFSGSKSGTSATLAITGLQTGDEADYYCEIWRSGLGGVFGGGTKLTVLS"
  LABEL_VALUE: "False"
- BINDER: "PL2#3 IgG4 (antibody, V domains shown, Human IgG4) VH: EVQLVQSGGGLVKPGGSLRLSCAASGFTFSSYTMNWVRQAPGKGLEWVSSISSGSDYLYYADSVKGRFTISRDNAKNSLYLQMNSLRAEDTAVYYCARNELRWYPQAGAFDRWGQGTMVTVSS VL: QSVVTQPPSMSAAPGQRVTISCSGSSSYIESSYVGWYQQLPGTAPRLLIYDDDMRPSGIPDRFSGSKSGTSATLAITGLQTGDEADYYCEIWRSGLGGVFGGGTKLTVL"
  LABEL_VALUE: "False"
- BINDER: "PL2#3 IgG2 (antibody, V domains shown, Human IgG2 backbone) VH: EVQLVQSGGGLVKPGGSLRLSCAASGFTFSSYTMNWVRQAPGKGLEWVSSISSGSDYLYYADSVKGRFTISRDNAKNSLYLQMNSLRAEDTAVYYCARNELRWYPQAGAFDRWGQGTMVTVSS VL: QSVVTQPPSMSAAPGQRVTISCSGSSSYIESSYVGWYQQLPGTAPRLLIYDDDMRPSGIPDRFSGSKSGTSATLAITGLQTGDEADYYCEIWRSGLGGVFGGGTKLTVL"
  LABEL_VALUE: "True"
- BINDER: "PL2 IgG1 (antibody, V domains shown) VH: EVQLVQSGGGLVKPGGSLRLSCAASGFTFSSYTMNWVRQAPGKGLEWVSSISSGSDYLYYADSVKGRFTISRDNAKNSLYLQMNSLRAEDTAVYYCARNELRWYPQAGAFDIWGQGTMVTVSS VL: QSVVTQPPSMSAAPGQNVTISCSGSSSYIESSYVSWYQQLPGTAPRLLIYDDDMRPSGIPDRFSGSKSGTSATLAITGLQTGDEADYYCEIWDSGLGGVFGGGTKLTVL"
  LABEL_VALUE: "False"
- BINDER: "PL2#3 IgG1 (antibody, V domains shown, Human IgG1) VH: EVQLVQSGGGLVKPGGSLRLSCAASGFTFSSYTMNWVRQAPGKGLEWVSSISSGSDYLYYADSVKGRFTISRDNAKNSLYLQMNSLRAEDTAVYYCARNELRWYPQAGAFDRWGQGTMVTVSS VL: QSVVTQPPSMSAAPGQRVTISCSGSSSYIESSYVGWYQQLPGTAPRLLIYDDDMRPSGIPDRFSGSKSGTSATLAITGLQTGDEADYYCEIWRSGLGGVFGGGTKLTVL"
  LABEL_VALUE: "False"

src = patent US20190225691A1
